pKd: recorded values
# study_target: T1, Human ST2-his (human, UniProt Q01638-2 19-328, limits assumed)
# T1 construct: Expressed in CHO-K1; The printed range starts at Met1; also called human ST2 fused with a 6-histidine tag at the C-terminus
# T1 sequence: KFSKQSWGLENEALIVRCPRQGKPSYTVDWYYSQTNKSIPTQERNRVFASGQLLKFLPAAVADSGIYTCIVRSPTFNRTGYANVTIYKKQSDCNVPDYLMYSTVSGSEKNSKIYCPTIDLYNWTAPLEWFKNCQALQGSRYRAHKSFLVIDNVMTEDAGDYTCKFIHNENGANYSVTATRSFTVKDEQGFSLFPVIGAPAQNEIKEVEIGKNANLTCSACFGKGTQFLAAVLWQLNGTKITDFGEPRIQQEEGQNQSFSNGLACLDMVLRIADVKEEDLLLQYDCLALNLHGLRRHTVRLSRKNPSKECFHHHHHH
# method_description: SPR Biacore X100, antibody captured on protein A chip, human ST2-his injected, pH 7.4
# Experimental: The experiment on the interaction between the anti-human ST2 antibodies and human ST2-his was performed using Biacore X100. Each anti-human ST2 antibody was diluted to 2 µg/mL and captured on the surface of a protein A chip for a capture time of 60 s. […] Association was monitored for 180 s and dissociation was monitored for 700 s, and the sensor surface was regenerated by injecting a solution of glycine at pH 2.0. Kinetic data were analyzed using a simple 1:1 binding model.
Note on pKd: it is the negative log10 of concentration, concentration in mol/L.

Consider the reported pKd for these binders:
binder	pKd
5887-41-H1L0 (antibody, human IgG4 S228P, kappa, V domains shown, Humanized antibody) VH: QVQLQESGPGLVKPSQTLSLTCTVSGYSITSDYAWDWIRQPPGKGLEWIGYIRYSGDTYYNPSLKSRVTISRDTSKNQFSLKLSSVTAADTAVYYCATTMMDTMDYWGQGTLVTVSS VL: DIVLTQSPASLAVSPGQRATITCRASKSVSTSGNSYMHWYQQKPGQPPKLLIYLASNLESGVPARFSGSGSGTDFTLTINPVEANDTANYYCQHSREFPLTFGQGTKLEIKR	9.67
5888-116-H0L1 (antibody, human IgG4 S228P, kappa, V domains shown, Humanized antibody) VH: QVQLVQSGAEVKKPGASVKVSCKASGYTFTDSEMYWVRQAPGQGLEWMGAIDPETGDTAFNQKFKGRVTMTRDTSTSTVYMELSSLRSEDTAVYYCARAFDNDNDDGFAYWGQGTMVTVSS VL: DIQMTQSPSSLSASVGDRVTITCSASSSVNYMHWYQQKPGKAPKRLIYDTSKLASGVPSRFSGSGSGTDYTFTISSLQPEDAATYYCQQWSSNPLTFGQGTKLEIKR	9.59

Turning to the following binder.
Would you kindly share the measured pKd for 5886-156-H1L1 (antibody, human IgG4 S228P, kappa, V domains shown, Humanized antibody) VH: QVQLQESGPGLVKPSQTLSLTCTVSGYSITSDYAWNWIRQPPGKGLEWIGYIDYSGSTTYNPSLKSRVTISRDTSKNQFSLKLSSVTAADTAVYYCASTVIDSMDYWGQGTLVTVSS VL: DIVLTQSPASLAVSPGQRATITCRASKSVSTSGHSYMHWYQQKPGQPPKLLIYLASNLESGVPARFSGSGSGTDFTLTINPVEANDAANYYCQHSREFPFTFGQGTKVEIKR ?
9.58
